Molecular target: M2 muscarinic receptor (Homo sapiens, UniProt P08172)
Sequence (P08172 whole entry): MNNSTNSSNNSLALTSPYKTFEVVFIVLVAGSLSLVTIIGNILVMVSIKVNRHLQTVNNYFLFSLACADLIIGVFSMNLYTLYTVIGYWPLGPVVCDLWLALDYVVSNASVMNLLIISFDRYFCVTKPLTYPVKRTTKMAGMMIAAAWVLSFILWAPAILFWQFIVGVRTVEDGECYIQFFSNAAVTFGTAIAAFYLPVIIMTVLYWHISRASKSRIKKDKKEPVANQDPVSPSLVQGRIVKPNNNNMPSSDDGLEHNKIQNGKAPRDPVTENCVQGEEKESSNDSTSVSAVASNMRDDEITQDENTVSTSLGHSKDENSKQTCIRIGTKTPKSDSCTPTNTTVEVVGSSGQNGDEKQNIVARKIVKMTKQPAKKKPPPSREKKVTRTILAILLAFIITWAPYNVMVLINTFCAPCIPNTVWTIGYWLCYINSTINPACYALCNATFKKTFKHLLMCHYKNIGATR
Assay: Functional mobilization of intracellular calcium (FLIPR) in CHO cells expressing M2
Details: CHO cells expressing M2, FLIPR calcium
EXPERIMENTAL_ENDPOINT: EC50

CCN(C(=O)C1CCCN1C(C)=O)[C@H]1CCC2(CCN(CCC(C)(C)C)CC2)c2ccccc21 (stereo partly shown) ... > 5 µM
CC(C)(C)CCN1CCC2(CC[C@@H](NC(=O)CC3CCOCC3)c3ccccc32)CC1 ... > 5 µM
CC(=O)N[C@H](C)C(=O)N[C@@H]1CCC2(CCN(CCC(C)(C)C)CC2)c2cc(F)ccc21 ... < 2 µM
CCn1cc(C(=O)N[C@H]2CCC3(CCN(CCC(C)(C)C)CC3)c3ccccc32)cn1 [compound 115] ... < 2 µM
CCOCC(=O)N[C@@H]1CCC2(CCN(CCC(C)(C)C)CC2)c2ccccc21 ... > 5 µM

The following compounds each have a reported value; give each one's EC50.
1. CCN(C(=O)c1cscn1)[C@H]1CCC2(CCN(CCC(C)(C)C)CC2)c2ccccc21
2. Cc1cc(C(=O)N[C@@H]2CCC3(CCN(CCC(C)(C)C)CC3)c3cc(F)ccc32)nn1C

Reply:
> 5 µM
< 2 µM

###

Biological target: M1 muscarinic receptor (Homo sapiens, UniProt P11229)
Construct: expressed in transfected cells; host or cells: CHO (M1-CHO)
Sequence (P11229 whole entry): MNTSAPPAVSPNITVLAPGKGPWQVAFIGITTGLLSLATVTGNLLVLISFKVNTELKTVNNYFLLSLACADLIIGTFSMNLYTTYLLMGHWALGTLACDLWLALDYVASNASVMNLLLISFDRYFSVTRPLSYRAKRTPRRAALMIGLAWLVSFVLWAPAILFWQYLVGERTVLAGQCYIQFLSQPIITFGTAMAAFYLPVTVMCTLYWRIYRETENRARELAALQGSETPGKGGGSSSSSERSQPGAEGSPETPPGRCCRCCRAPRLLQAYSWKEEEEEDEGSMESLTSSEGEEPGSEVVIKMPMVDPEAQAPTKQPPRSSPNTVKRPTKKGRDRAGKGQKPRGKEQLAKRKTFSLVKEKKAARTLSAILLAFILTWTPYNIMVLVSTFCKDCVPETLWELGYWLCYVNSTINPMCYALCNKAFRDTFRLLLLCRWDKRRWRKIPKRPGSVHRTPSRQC
Assay: Functional mobilization of intracellular calcium (FLIPR) in CHO cells expressing M1
Assay type: cell-based
Details: CHO; 100% = maximum response obtained with the Carbachol control; read-out: M1 Efficacy
EXPERIMENTAL_ENDPOINT: Emax

Recorded Emax, per entry:
CC(C)(C)CCN1CCC2(CCC(C#N)c3ccccc32)CC1 (stereo not drawn) ... 25 to 100%
CCN(C(=O)c1cccnc1)[C@@H]1CCC2(CCN(CCC(C)(C)C)CC2)c2ccccc21 ... < 25%
CC(=O)CCC(=O)N[C@H]1CCC2(CCN(CCC(C)(C)C)CC2)c2ccccc21 ... 25 to 100%
CC(=O)N[C@H]1CCC2(CCN(CC(=O)C(C)(C)C)CC2)c2ccccc21 ... 25 to 100%
C=CCCCN1CCC2(CC[C@H](NC(C)=O)c3ccccc32)CC1 ... 25 to 100%
COCCC(=O)N[C@@H]1CCC2(CCN(CCC(C)(C)C)CC2)c2ccccc21 ... < 25%

The following molecules each have a reported value; give each one's Emax.
1. Cc1cc(C(=O)N[C@H]2CCC3(CCN(CCC(C)(C)C)CC3)c3cc(F)ccc32)nn1C
2. CC(=O)N1CCCC[C@H]1C(=O)N[C@H]1CCC2(CCN(CCC(C)(C)C)CC2)c2cc(F)ccc21
3. CCC(=O)N1CCCCC1C(=O)N[C@@H]1CCC2(CCN(CCC(C)(C)C)CC2)c2ccccc21 (stereo partly drawn)

Reply:
1. 25 to 100%
2. 25 to 100%
3. < 25%

###

Target: M2 muscarinic receptor (Homo sapiens, UniProt P08172)
Assay: Functional mobilization of intracellular calcium (FLIPR) in CHO cells expressing M2
Conditions: CHO cells expressing M2, FLIPR calcium
Assign EC50 to each entry below.

CC(=O)N1CCCC[C@@H]1C(=O)N[C@@H]1CCC2(CCN(CCC(C)(C)C)CC2)c2cc(F)ccc21 ... 2 to 5 µM
C[C@H](C(=O)N[C@@H]1CCC2(CCN(CCC(C)(C)C)CC2)c2ccccc21)N1CCCC1=O ... < 2 µM
CC(=O)N1CCCC(C(=O)N[C@@H]2CCC3(CCN(CCC(C)(C)C)CC3)c3ccccc32)C1 (stereo partly shown) ... > 5 µM

Query: Fill in: EC50 of CCN(C(=O)CCC(C)=O)[C@H]1CCC2(CCN(CCC(C)(C)C)CC2)c2ccccc21 is ___
Reply: > 5 µM
